Task for the reader: assign each of the following substances its reported % INHIB 150 nm.
# System: human apolipoprotein B mRNA
# test protocol: Inhibition of human apolipoprotein B mRNA levels in HepG2 cells, quantitative real-time PCR
# Format: cell-based
# condition context: Table 17 variable gap; HepG2 cells, 150 nM; averages from three experiments
Record the value in %, omitting the unit from your answer.

Query string: Please report the recorded % INHIB 150 nm for 308630 (GCCTCAGTCTGCTTCGCGCC; 0-10-10 MOE gapmer, phosphorothioate, chemistry not fully specified) [compound 308630] .
Result string: 89

Query string: Find the recorded % INHIB 150 nm belonging to 308661 (antisense AGTCTGCTTCGCGCCTTCTG; 2-10-8 2'-MOE gapmer, phosphorothioate, chemistry not fully specified) [compound 308661] and report it.
Result string: 91

Query string: Using the record for 308636 (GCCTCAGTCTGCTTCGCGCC; all C 5-methyl, all phosphorothioate, sugars by position not given here; further chemistry not fully specified) [compound 308636] , report its % INHIB 150 nm.
Result string: 91

Query string: What value of measured % INHIB 150 nm is listed for 308642 (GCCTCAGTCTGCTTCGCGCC; 3-10-7 MOE gapmer, phosphorothioate, chemistry not fully specified) [compound 308642] ?
Result string: 95

Query string: // % INHIB 150 nm lookup, key: 308651 (antisense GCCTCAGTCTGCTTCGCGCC; 7-10-3 2'-MOE gapmer, phosphorothioate, chemistry not fully specified) [compound 308651]
Result string: 88

Data credit: patent US7803930B2
